Source: PubChem BioAssay AID463229

System: INS-1E rat beta cells, no cytokines, CellTiter-Glo ATP, 48 h
Assay: cytokine-free beta-cell viability effect – INS-1E rat cells, ATP luminescence, cherry pick, counter-screen for beta-cell apoptosis protection project, dose response (AID 463229)
I'd appreciate it if you could supply AC50 values for the items below.

Report AC50 for Cc1ccc(Cl)cc1NC1=C/C(=N\S(=O)(=O)c2cccs2)c2ccccc2C1=O please.
4.61 µM

What does the record list as AC50 for NC1=NC[C@H](Cc2ccc(O)cc2)N1CCCCC1CCCCC1 ?
2.34 µM

State the recorded AC50 for this entry: COc1ccc(-n2cc(-c3ccccc3)[n+]3c2CCCCC3)cc1
1.94 µM

GET /values?readout=AC50&item= c1ccc(-c2cccc(-c3ccccn3)n2)nc1
1.24 µM

Would you kindly share the measured AC50 for COc1cc(-c2nc3ccc(C)cn3c2NCc2ccccc2)ccc1-c1cccc(Cl)c1 ?
4.66 µM

For the compound shown here, COc1ccc2nc(C)cc(N/N=C/c3ccccc3)c2c1 , give the reported AC50.
13.8 µM

Which AC50 is reported for this compound? CCCCCn1c(=O)c(C(=O)NC(C)c2ccccc2)c(O)c2ccccc21 (stereo not given)
4.19 µM

Data request, read-out AC50, for C#CCOCCOCCOCCNc1nc(N2CCN(C(=O)CCCCCCCCCCNC(=O)Cn3cc(CCCCCN)nn3)CC2)nc(N2CCN(C(=O)CCCCCCCCCCNC(=O)[C@H]([C@@H](C)CC)n3cc(CCCCN=C(N)N)nn3)CC2)n1
8.89 µM

Using the record for CCOC(=O)CS(=O)(=O)c1nc(-c2ccccc2)cc(C(F)(F)F)n1 , report its AC50.
8.1 µM

Requested read-out: AC50. Entry: COc1cc(CNC(C)c2ccccc2)cc(Br)c1OCc1ccc(F)cc1 (stereo not given)
13.8 µM
